test system: HCT 116; assay: Antiproliferative assay, HCT 116; assay type: cell-based, human; settings: Homo sapiens, HCT-116; 48 h incubation; average of three assays, standard error ± 0.5 μM
// reported pIC50 for each item listed
Units for pIC50: none; it is -log10 of a concentration expressed in mol/L.

compound	reported.property	recorded.number
N=c1c2c(ncn1/N=C/c1ccccc1O)Oc1ccccc1C2 [10e]	pIC50	6.52

For the next question, use this compound.
*Q* Notebook: pull reported pIC50 for HCT 116, entry COc1cccc2c1Oc1ncn(/N=C/c3ccc(N(C)C)cc3)c(=N)c1C2 [10g]
*A* 4.62

====

System: Huh7 D12
Experiment: Antiproliferative assay, Huh7 D12
Type: cell-based, human
Conditions: Homo sapiens, Huh-7D12; 48 h incubation; average of three assays, standard error ± 0.5 μM
Procedure: The potential antiproliferative activity of these novel 3-(N-phenylmethyliden)amino-4-imino-3,5-dihydro-4H-chromeno[2,3-d]pyrimidine 10(a-i) and 10-(N-phenylmethyliden)amino-11-imino-11H-naphto[1′,2′:5,6]pyrano[2,3-d]pyrimidine 10(j-l) was evaluated in a panel of eight tumoral cell lines and in diploid skin fibroblasts used as normal cell lines for control. […] The potential antiproliferative activity was preliminarily evaluated in vitro at a 25 μM single dose. […]
reported.property: pIC50
Recall that pIC50 is obtained by taking minus log10 of the concentration measured in molar.

Answered cases to consult:
compound	assayed.system	pIC50
COc1cccc2c1Oc1ncn(/N=C/c3ccccc3)c(=N)c1C2 [10i]	Huh7 D12	6.31
N=c1c2c(ncn1/N=C/c1ccccc1O)Oc1ccc3ccccc3c1C2 [10k]	Huh7 D12	5.82
CN(C)c1ccc(/C=N/n2cnc3c(c2=N)Cc2c(ccc4ccccc24)O3)cc1 [10j]	Huh7 D12	5.22
COc1cccc2c1Oc1ncn(/N=C/c3ccccc3O)c(=N)c1C2 [10h]	Huh7 D12	6.64
COc1cccc2c1Oc1ncn(/N=C/c3ccc(N(C)C)cc3)c(=N)c1C2 [10g]	Huh7 D12	5.22

*Q* Looking for the measured pIC50 of CN(C)c1ccc(/C=N/n2cnc3c(c2=N)Cc2ccccc2O3)cc1 [10d] , can you help?
*A* 4.96
